- assayed target: Insulin-like growth factor 1 receptor (Homo sapiens)
- experiment notes: Inhibition of IGF-induced autophosphosphorylation of GST-tagged human IGF1R expressed in baculovirus-SF21 cell system preincubated for 10 mins by time resolved-fluorescent assay
pIC50: −log10 of the molar value.
reported property: pIC50

[A] CC(=O)Nc1cc(CN2C(=O)N(c3ccc(SC(F)(F)F)cc3)C(=O)C2(C)C)ccn1
[B] COc1cc2c(-c3cc4cccnc4[nH]3)cn(C)c2cc1OC
Short answer wanted: higher pIC50, A or B ? Lab note: record the label of whichever item you select.
B
(B: 7.47, A: 7.06)

====

- experiment notes: Oral bioavailability in BALB/c mouse at 10 mg/kg
- Type: ADME, organism-based
- condition parameters: in vivo
reported property: bioavailability

// bioavailability value for C[C@H]1C(=O)N(c2ccc(S(=O)(=O)C(F)(F)F)cc2)C(=O)N1Cc1ccnc2ccccc12 : > 100%

====

- assayed target: Insulin-like growth factor 1 receptor (Homo sapiens, UniProt P08069)
- Sequence (P08069 31-736 limits assumed): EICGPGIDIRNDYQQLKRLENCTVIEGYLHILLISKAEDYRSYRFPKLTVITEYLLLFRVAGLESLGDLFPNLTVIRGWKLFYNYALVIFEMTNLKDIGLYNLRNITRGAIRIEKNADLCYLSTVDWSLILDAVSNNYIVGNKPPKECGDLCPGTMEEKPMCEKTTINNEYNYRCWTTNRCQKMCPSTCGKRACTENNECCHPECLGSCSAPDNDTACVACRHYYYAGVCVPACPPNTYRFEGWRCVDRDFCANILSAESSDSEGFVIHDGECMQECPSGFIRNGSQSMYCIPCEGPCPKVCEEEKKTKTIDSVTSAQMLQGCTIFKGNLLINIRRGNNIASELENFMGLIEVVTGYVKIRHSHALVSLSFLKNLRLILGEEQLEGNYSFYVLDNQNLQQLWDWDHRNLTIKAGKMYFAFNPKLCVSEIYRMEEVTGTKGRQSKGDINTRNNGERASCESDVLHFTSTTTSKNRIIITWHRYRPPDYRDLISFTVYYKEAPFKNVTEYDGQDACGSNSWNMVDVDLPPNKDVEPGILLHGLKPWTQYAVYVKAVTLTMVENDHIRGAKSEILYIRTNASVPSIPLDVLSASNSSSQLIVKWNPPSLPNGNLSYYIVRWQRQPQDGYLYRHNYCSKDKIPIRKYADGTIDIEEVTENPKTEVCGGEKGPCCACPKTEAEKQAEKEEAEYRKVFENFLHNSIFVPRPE
- Sequence (P08069 741-1367 limits assumed): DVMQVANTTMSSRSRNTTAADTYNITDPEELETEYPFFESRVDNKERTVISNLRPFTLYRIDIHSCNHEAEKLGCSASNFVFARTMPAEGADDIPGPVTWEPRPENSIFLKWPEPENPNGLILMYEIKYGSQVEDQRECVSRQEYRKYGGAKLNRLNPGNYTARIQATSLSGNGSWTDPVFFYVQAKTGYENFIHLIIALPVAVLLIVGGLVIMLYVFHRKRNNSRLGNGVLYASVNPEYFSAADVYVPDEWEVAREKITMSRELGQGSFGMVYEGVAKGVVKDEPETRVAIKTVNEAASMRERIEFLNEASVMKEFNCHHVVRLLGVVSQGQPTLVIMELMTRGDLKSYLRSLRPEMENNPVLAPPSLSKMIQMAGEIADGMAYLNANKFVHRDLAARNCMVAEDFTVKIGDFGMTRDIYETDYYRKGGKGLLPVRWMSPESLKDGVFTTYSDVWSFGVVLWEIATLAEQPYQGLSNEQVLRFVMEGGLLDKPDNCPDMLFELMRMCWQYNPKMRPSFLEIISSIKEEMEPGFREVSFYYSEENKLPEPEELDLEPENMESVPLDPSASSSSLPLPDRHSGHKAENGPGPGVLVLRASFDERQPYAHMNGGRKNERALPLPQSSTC
- experiment notes: Inhibition of IGF-induced autophosphosphorylation of GST-tagged human IGF1R expressed in baculovirus-SF21 cell system preincubated for 30 mins by time resolved-fluorescent assay
reported property: IC50 (nM)

# substance smiles, assayed target, IC50 [nM]
rows = [
    ("COc1cc2c(-c3cc4cccnc4[nH]3)cn(C)c2cc1OC", "Insulin-like growth factor 1 receptor (Homo sapiens, UniProt P08069)", 33),
    ("CC(=O)Nc1cc(CN2C(=O)N(c3ccc(SC(F)(F)F)cc3)C(=O)C2(C)C)ccn1", "Insulin-like growth factor 1 receptor (Homo sapiens, UniProt P08069)", 28),
]

====

- assayed target: Insulin-like growth factor 1 receptor (Homo sapiens, UniProt P08069)
- experiment notes: Inhibition of IGF-induced autophosphosphorylation of GST-tagged human IGF1R expressed in SF21 cells by time resolved-fluorescent assay
pIC50: −log10 of the molar value.
Measured pIC50 of individual entries

The examples below pair each entry with its known result.
# substance smiles, reported value
records = [
    ("C[C@H]1C(=O)N(c2ccc(S(=O)(=O)C(F)(F)F)cc2)C(=O)N1Cc1cnc2ccccc2c1", "< 4.00"),
    ("CC1(C)C(=O)N(c2ccc(SC(F)(F)F)cc2)C(=O)N1Cc1ccnc(N2CCCCC2)c1", "< 5.00"),
    ("CC1(C)C(=O)N(c2ccc(SC(F)(F)F)cc2)C(=O)N1Cc1ccnc(C(=O)O)c1", "< 5.00"),
    ("C[C@H]1C(=O)N(c2ccc(S(=O)(=O)C(F)(F)F)cc2)C(=O)N1Cc1ccccc1", "< 4.00"),
    ("C[C@H]1C(=O)N(c2ccc(S(=O)(=O)C(F)(F)F)cc2)C(=O)N1Cc1cc[n+]([O-])cc1", "< 4.00"),
]

Continue with the compound presented below.
// pIC50 value for CC1(C)C(=O)N(c2ccc(SC(F)(F)F)cc2)C(=O)N1Cc1ccnc(N2CCNCC2)c1 : < 5.00

Taken from ChEMBL document CHEMBL1759913.
